This collection of values is drawn from paper PMC4798942.

- studyTarget: human CP4H1 (collagen prolyl 4-hydroxylase 1, alpha(I)2beta2 holoenzyme) (Homo sapiens, UniProt P13674)
- Sequence (P13674 18-534): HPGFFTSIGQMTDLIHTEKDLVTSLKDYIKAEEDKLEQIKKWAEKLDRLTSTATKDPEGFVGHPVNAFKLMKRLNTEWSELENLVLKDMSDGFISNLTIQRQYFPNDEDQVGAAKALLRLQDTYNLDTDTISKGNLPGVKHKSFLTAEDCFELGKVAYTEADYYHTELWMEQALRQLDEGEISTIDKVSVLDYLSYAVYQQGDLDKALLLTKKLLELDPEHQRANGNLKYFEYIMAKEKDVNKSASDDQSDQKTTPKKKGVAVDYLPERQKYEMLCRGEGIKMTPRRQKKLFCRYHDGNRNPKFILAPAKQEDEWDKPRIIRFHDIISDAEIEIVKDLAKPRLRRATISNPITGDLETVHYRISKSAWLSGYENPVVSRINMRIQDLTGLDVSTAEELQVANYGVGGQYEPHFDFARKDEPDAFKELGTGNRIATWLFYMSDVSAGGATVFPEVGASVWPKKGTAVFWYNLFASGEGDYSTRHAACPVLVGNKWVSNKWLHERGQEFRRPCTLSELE
- Sequence (P07237 18-508 partner): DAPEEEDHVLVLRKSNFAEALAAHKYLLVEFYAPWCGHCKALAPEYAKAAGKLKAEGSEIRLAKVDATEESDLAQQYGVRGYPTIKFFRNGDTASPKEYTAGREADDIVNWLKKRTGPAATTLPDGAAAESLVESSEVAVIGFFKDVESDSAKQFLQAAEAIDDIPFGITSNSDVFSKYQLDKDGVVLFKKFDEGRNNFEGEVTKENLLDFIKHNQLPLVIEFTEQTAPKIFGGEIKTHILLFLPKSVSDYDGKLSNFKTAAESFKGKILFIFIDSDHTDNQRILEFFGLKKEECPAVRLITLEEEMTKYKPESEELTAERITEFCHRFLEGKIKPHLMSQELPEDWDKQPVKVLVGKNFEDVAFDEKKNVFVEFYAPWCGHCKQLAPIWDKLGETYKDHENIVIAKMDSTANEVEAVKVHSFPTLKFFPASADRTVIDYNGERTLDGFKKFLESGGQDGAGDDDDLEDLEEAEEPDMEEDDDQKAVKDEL
- experimentalProtocol: dose-response inhibition of CP4H1 hydroxylation activity
- Assay type: biochemical
- assayConditions: Fe(II) and AKG dependent reaction
The reader will find reported IC50 values listed item by item below.
Kindly answer with a numeric value in µM, unit omitted.

{"molecule": "O=C(O)c1ccc(-c2ncc(C(=O)O)[nH]2)nc1 [pyimDC]", "IC50 (µM)": 2.6}

Attention now shifts to the item below.
Can you look up the measured IC50 of O=C(O)c1ccc(-c2ncc(C(=O)O)o2)nc1 [pyoxDC] for me?
33

###

- studyTarget: human CP4H1 (collagen prolyl 4-hydroxylase 1, alpha(I)2beta2 holoenzyme) (Homo sapiens, UniProt P13674)
- experimentalProtocol: dose-response inhibition of CP4H1 hydroxylation activity
- Assay type: biochemical
observationType: pIC50
pIC50 here is simply -log10 of the concentration when that concentration is written in mol/L.

Can you look up the measured pIC50 of O=C(O)c1ccc(-c2ncc(C(=O)O)s2)nc1 [pythiDC] for me?
5.40
